target-or-system: recombinant human plasminogen activator inhibitor-1 (PAI-1) (Homo sapiens, UniProt P05121)
Construct: purchased Molecular Innovations, Royal Oak, Mich
Sequence (P05121 24-402): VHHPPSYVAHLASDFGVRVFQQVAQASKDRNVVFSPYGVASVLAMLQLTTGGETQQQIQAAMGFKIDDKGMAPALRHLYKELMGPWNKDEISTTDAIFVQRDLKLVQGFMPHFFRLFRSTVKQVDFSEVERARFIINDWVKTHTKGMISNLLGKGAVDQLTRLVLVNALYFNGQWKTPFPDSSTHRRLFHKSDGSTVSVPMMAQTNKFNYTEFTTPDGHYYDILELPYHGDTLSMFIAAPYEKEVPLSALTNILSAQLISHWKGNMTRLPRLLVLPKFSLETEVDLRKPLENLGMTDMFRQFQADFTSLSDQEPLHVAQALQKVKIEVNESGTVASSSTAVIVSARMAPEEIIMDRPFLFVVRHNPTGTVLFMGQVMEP
experiment-summary: Primary Screen for the PAI-1 Inhibition (residual tPA activity, Spectrozyme-tPA chromogenic substrate)
Type: biochemical
setup-conditions: 10 μM test compound; pH 6.6 buffer
Experimental: Test compounds are dissolved in DMSO at a final concentration of 10 mM, then diluted 100×in physiologic buffer. […] Following the second incubation, Spectrozyme-tPA (American Diagnostica, Greenwich, Conn.), a chromogenic substrate for tPA, is added and absorbance read at 405 nm at 0 and 60 minutes. […]
assay-metric: inhibition at 10 µM (%)
Your answer should be a plain number; it is taken to be in %.

Some compounds with recorded inhibition at 10 µM:
> print(dat)
                                   compound                          target.or.system  display.unit  endpoint.value
1  CCCCc1oc2ccccc2c1-c1ncc(-c2ccc3cc(OCC(=O)O)ccc3c2)o1  recombinant human plasminogen activator inhibitor-1 (PAI-1) (Homo sapiens, UniProt P05121)             %              23
2  c1ccc(Cn2cc(-c3ncc(-c4ccc5cc(OCc6nnn[nH]6)ccc5c4)o3)c3ccccc32)cc1  recombinant human plasminogen activator inhibitor-1 (PAI-1) (Homo sapiens, UniProt P05121)             %              19
3  O=C(O)COc1ccc2cc(-c3cnc(Cc4ccc5ccccc5c4)o3)ccc2c1  recombinant human plasminogen activator inhibitor-1 (PAI-1) (Homo sapiens, UniProt P05121)             %              12
4  Cn1cc(-c2ncc(-c3ccc4cc(OC(Cc5ccccc5)C(=O)O)ccc4c3)o2)c2ccccc21 (centres unmarked)  recombinant human plasminogen activator inhibitor-1 (PAI-1) (Homo sapiens, UniProt P05121)             %               2
5  O=C(O)C(Cc1ccccc1)Oc1ccc2cc(-c3cnc(Cc4ccccc4)o3)ccc2c1 (centres unmarked)  recombinant human plasminogen activator inhibitor-1 (PAI-1) (Homo sapiens, UniProt P05121)             %              18

Ask | Write down inhibition at 10 µM measured for item O=C(O)COc1ccc2cc(-c3cnc(-c4cn(Cc5ccccc5)c5ccccc45)o3)ccc2c1
Reply | 4

Ask | Fill in reported inhibition at 10 µM for this entry: CCCCc1oc2ccccc2c1-c1ncc(-c2ccc3c(Br)c(OCc4nnn[nH]4)ccc3c2)o1
Reply | 11

Ask | Please report inhibition at 10 µM for the following compound: O=C(O)COc1ccc2cc(-c3cnc(Cc4ccccc4)o3)ccc2c1
Reply | 0
